biological target: XIAP-BIR3 (Homo sapiens); construct: 40 nM of XIAP-BIR3 for 15 min at RT; assay: XIAP BIR-3 fluorescence polarization binding assay; conditions: 5 nM AbuRPF-K(5-Fam)-NH2, 40 nM XIAP-BIR3, 15 min RT, pH 7.5; read-out: KD Range
MEASUREMENT_NAME: Kd

Q) Please tell me: Kd of CNC(C)C(=O)NC(C(=O)N1CCCC1Cc1c(-c2ccc(-c3c(CC4CCCN4C(=O)C(NC(=O)C(C)NC)C(C)(C)C)c4ccc(F)cc4n3CCO)cc2)n(CCO)c2cc(F)ccc12)C(C)(C)C (single isomer, unassigned) [Entry 487] , system XIAP-BIR3 (Homo sapiens)?
A) < 100 nM

Q) State its Kd on XIAP-BIR3 (Homo sapiens): CN[C@@H](C)C(=O)N[C@H](C(=O)N1CCC[C@H]1Cc1c(-c2ccc(-c3oc4ccccc4c3C[C@@H]3CCCN3C(=O)[C@@H](NC(=O)[C@H](C)NC)[C@@H](C)O)cc2)oc2ccccc12)[C@@H](C)O
A) < 100 nM

====

target: XIAP-BIR3 (Homo sapiens, UniProt P98170); construct: 40 nM of XIAP-BIR3 for 15 min at RT; experiment: XIAP BIR-3 fluorescence polarization binding assay; details: 5 nM AbuRPF-K(5-Fam)-NH2, 40 nM XIAP-BIR3, 15 min RT, pH 7.5; read-out: KD Range
Sequence (P98170 241-356 limits assumed): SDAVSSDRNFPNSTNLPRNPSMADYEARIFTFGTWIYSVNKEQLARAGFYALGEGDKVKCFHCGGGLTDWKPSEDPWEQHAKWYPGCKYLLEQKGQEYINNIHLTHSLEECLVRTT
pKd: −log10 of the molar value.
MEASUREMENT_NAME: pKd

Q) pKd lookup needed for CN[C@@H](C)C(=O)N[C@H](C(=O)N1C[C@@H](O)C[C@H]1Cc1c(-c2ccc(-c3[nH]c4ccc(F)cc4c3C[C@@H]3C[C@H](O)CN3C(=O)[C@@H](NC(=O)[C@H](C)NC)C(C)C)cc2)[nH]c2ccc(F)cc12)C(C)C [Entry 40] , thanks.
A) 6.00 to 7.00

Q) Which pKd value belongs to CN[C@@H](C)C(=O)N[C@H](C(=O)N1CCC[C@H]1Cc1c(-c2ccc(-c3c(C[C@@H]4CCCN4C(=O)[C@@H](NC(=O)[C@H](C)NC)C(C)C)c4cc(F)ccc4n3CCO)cc2)n(CCO)c2ccc(F)cc12)C(C)C [Entry 55] ?
A) > 7.00

Q) Which pKd value belongs to CN[C@@H](C)C(=O)N[C@H](C(=O)N1CCC[C@H]1Cc1c(-c2ccc(-c3c(C[C@@H]4CCCN4C(=O)[C@@H](NC(=O)[C@H](C)NC)C(C)C)c4ccc(F)cc4n3CCO)cc2)n(CCO)c2cc(F)ccc12)C(C)C [Entry 46] ?
A) > 7.00

Q) Which pKd value is on record for CN[C@@H](C)C(=O)N[C@H](C(=O)N1CCC[C@H]1Cc1c(-c2ccc(-c3c(C[C@@H]4CCCN4C(=O)[C@@H](NC(=O)[C@H](C)NC)[C@@H](C)O)c4ccc(F)cc4n3CCOC)cc2)n(CCOC)c2cc(F)ccc12)[C@@H](C)O [Entry 50] ?
A) > 7.00

Q) For CN[C@@H](C)C(=O)N[C@H](C(=O)N1C[C@@H](O)C[C@H]1Cc1c(-c2ccc(-c3[nH]c4ccccc4c3C[C@@H]3C[C@H](O)CN3C(=O)[C@@H](NC(=O)[C@H](C)NC)C(C)(C)C)cc2)[nH]c2ccccc12)C(C)(C)C [Entry 24] , what is its reported pKd?
A) > 7.00

Q) State the recorded pKd for this entry: CN[C@@H](C)C(=O)N[C@H](C(=O)N1CCC[C@H]1Cc1c(-c2ccc(-c3c(C[C@@H]4CCCN4C(=O)[C@@H](NC(=O)[C@H](C)NC)C(C)(C)C)c4cc(F)ccc4n3CCO)cc2)n(CCO)c2ccc(F)cc12)C(C)(C)C [Entry 54]
A) > 7.00

Q) What value of pKd has been reported for the following compound? CN[C@@H](C)C(=O)N[C@H](C(=O)N1CCC[C@H]1Cc1c(-c2ccc(-c3c(C[C@@H]4CCCN4C(=O)[C@@H](NC(=O)[C@H](C)NC)C(C)(C)C)c4ccc(F)cc4n3CCOC)cc2)n(CCOC)c2cc(F)ccc12)C(C)(C)C [Entry 51]
A) > 7.00

Q) Item under review: CN[C@@H](C)C(=O)N[C@H](C(=O)N1CCC[C@H]1Cc1c(-c2ccc(-c3[nH]c4cc(F)ccc4c3C[C@@H]3CCCN3C(=O)[C@@H](NC(=O)[C@H](C)NC)[C@@H](C)OCc3ccccc3)cc2)[nH]c2cc(F)ccc12)[C@@H](C)O [Entry 32] . Reported pKd?
A) > 7.00

Q) Quick one: pKd of CC(C)[C@H](NC(=O)[C@H](C)N)C(=O)N1CCC[C@H]1Cc1c(CCc2oc3ccccc3c2C[C@@H]2CCCN2C(=O)[C@@H](NC(=O)[C@H](C)N)C(C)C)oc2ccccc12 [Entry 3] ?
A) > 7.00

Q) Which pKd value belongs to CN[C@H](C)C(=O)N[C@H](C(=O)N1CCC[C@H]1Cc1c(-c2ccc(-c3c(C[C@@H]4CCCN4C(=O)[C@@H](NC(=O)[C@@H](C)NC)C(C)(C)C)c4ccc(F)cc4n3CCO)cc2)[nH]c2cc(F)ccc12)C(C)(C)C [Entry 71] ?
A) 6.00 to 7.00

Q) State the recorded pKd for this entry: CN[C@@H](C)C(=O)N[C@H](C(=O)N1CCC[C@H]1Cc1c(-c2ccc(-c3c(C[C@@H]4CCCN4C(=O)[C@@H](NC(=O)[C@H](C)NC)C(C)C)c4ccc(F)cc4n3CCOC)cc2)n(CCOC)c2cc(F)ccc12)C(C)C [Entry 52]
A) > 7.00

Q) Suppose we examine the compound CN[C@@H](C)C(=O)N[C@H](C(=O)N1CCC[C@H]1Cc1c(-c2ccc(-c3[nH]c4cc(F)ccc4c3C[C@@H]3CCCN3C(=O)[C@@H](NC(=O)[C@H](C)NC)[C@@H](C)O)cc2)[nH]c2cc(F)ccc12)[C@@H](C)O [Entry 27] ; what pKd value has been reported?
A) > 7.00

Q) // query pKd value for entry CN[C@@H](C)C(=O)N[C@H](C(=O)N1CCC[C@H]1Cc1c(-c2ccc(-c3[nH]c4cc(F)ccc4c3C[C@@H]3CCCN3C(=O)[C@@H](NC(=O)[C@H](C)NC)[C@@H](C)OCc3ccccc3)cc2)[nH]c2cc(F)ccc12)[C@@H](C)OCc1ccccc1 [Entry 33]
A) > 7.00

Q) Query: pKd; subject: CC(C)[C@H](NC(=O)CN)C(=O)N1CCC[C@H]1Cc1c(-c2ccc(-c3oc4ccccc4c3C[C@@H]3CCCN3C(=O)[C@@H](NC(=O)[C@H](C)N)C(C)C)cc2)oc2ccccc12 [Entry 4]
A) > 7.00

Q) For CN[C@@H](C)C(=O)N[C@H](C(=O)N1CCC[C@H]1Cc1c(-c2ccc(-c3[nH]c4ccc(F)cc4c3C[C@@H]3CCCN3C(=O)[C@@H](NC(=O)[C@H](C)NC)C(C)C)cc2)[nH]c2ccc(F)cc12)C(C)C [Entry 23] , what is its reported pKd?
A) > 7.00

Q) # lookup: pKd of CN[C@@H](C)C(=O)N[C@H](C(=O)N1CCC[C@H]1Cc1c(-c2ccc(-c3oc4ccccc4c3C[C@@H]3CCCN3C(=O)[C@@H](NC(=O)[C@H](C)NC)C(C)C)cc2)oc2ccccc12)C(C)C [Entry 10]
A) > 7.00

Q) Data request, read-out pKd, for CN[C@@H](C)C(=O)N[C@H](C(=O)N1CCC[C@H]1Cc1cn(CC#CC#CCn2cc(C[C@@H]3CCCN3C(=O)[C@@H](NC(=O)[C@H](C)NC)C(C)(C)C)c3ccccc32)c2ccccc12)C(C)(C)C [Entry 119]
A) > 7.00

====

target: XIAP-BIR3 (Homo sapiens, UniProt P98170); construct: 40 nM of XIAP-BIR3 for 15 min at RT; test: XIAP BIR-3 fluorescence polarization binding assay; conditions: 5 nM AbuRPF-K(5-Fam)-NH2, 40 nM XIAP-BIR3, 15 min RT, pH 7.5; read-out: KD Range
pKd: −log10 of the molar value.
MEASUREMENT_NAME: pKd

Q) Request the reported pKd associated with CN[C@@H](C)C(=O)N[C@H](C(=O)N1CCC[C@H]1Cc1c(-c2ccc(-c3[nH]c4cc(F)ccc4c3C[C@@H]3CCCN3C(=O)[C@@H](NC(=O)[C@H](C)NC)C3CCCCC3)cc2)[nH]c2cc(F)ccc12)C1CCCCC1 [Entry 20]
A) > 7.00

Q) Name the recorded pKd for CN[C@@H](C)C(=O)N[C@H](C(=O)N1CCC[C@H]1Cc1c(-c2ccc(-c3c(C[C@@H]4CCCN4C(=O)[C@@H](NC(=O)[C@H](C)N)[C@@H](C)O)c4ccc(F)cc4n3CCO)cc2)n(CCO)c2cc(F)ccc12)[C@@H](C)O [Entry 43] .
A) > 7.00

Q) What measured pKd goes with CN[C@@H](C)C(=O)N[C@H](C(=O)N1CCC[C@H]1Cc1c(-c2ccc(-c3[nH]c4cc(F)ccc4c3C[C@@H]3CCCN3C(=O)[C@@H](NC(=O)[C@H](C)NC)[C@@H](C)OCc3ccccc3)cc2)[nH]c2cc(F)ccc12)[C@@H](C)OCc1ccccc1 [Entry 25] ?
A) > 7.00

Q) Fill in: pKd of CN[C@@H](C)C(=O)N[C@H](C(=O)N1C[C@H](O)C[C@H]1Cc1c(-c2ccc(-c3[nH]c4ccccc4c3C[C@@H]3C[C@@H](O)CN3C(=O)[C@@H](NC(=O)[C@H](C)NC)C(C)(C)C)cc2)[nH]c2ccccc12)C(C)(C)C [Entry 36] is ___
A) 6.00 to 7.00
